biological target: Pin1 (GST-Pin1) (Homo sapiens); experiment: Fluorescence polarization (FP) assay, binding to Pin1; conditions: competition with fluorescein-labeled peptide probe; 12 hours pre-incubation at 4° C.; Kenakin Ki equation; read-out: Ki, μM (FP Assay)
Sequence (Q13526 whole entry): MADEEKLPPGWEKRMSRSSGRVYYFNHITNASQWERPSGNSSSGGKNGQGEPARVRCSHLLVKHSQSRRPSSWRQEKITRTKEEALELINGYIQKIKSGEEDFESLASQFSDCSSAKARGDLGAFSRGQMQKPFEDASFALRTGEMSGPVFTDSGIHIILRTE
Non-standard residues stand in square brackets, D forms with d. Residues, ends and D or L forms follow the SMILES beside them. *: point of attachment. Ala(4-thiazolyl) = N[C@@H](Cc1cscn1)C(=O)O; Dip = N[C@H](C(=O)O)C(c1ccccc1)c1ccccc1; NH(4-Me-benzyl) = Cc1ccc(CN*)cc1; Cit = NC(=O)NCCC[C@H](N)C(=O)O; Pip = O=C(O)[C@@H]1CCCCN1; X3 = C=CS(=O)(=O)*; ClAc = O=C(CCl)*
readout-label: Ki (µM)
Report only the number, with the unit µM understood.

Incoming: Entry N=C(N)NCCC[C@H](NC(=O)[C@@H](NC(=O)[C@@H]1CCCCN1C(=O)[C@H](CCC(=O)O)NC(=O)CCl)C(c1ccccc1)c1ccccc1)C(N)=O [Compound 2b-10] (ClAc-E[Pip][Dip]R-NH2) : reported Ki = ?
Outgoing: 0.85

Incoming: Which Ki is listed for Cc1ccc(CNC(=O)[C@H](Cc2cscn2)NC(=O)[C@H](Cc2c[nH]c3ccccc23)NC(=O)[C@@H]2CCCCN2C(=O)[C@H](Cc2ccccc2)NC(=O)CCl)cc1 [Compound 11-32] (ClAc-F[Pip]W[Ala(4-thiazolyl)]-{NH(4-Me-benzyl)}) ?
Outgoing: 0.121

Incoming: Which Ki reading was recorded for the compound C=CS(=O)(=O)N[C@@H](Cc1ccccc1)C(=O)N1CCCC[C@H]1C(=O)N[C@@H](Cc1c[nH]c2ccccc12)C(=O)N[C@@H](CCCNC(N)=O)C(=O)NCc1ccc(C)cc1 [Compound 14] (X3-F[Pip]W[Cit]-{NH(4-Me-benzyl)}) ?
Outgoing: 0.143

---

target: Pin1 (Homo sapiens, UniProt Q13526); test: Lysate target engagement (pull down with biotinylated probes; competition assay); assay type: binding; parameters: endogenous in cells; host or cells: MDA-MB-231; conditions: TNBC-MDA-MB-231 lysate; biotin/dtb probes: pull down; others: competition; concentration under E5
Non-standard residues stand in square brackets, D forms with d. Residues, ends and D or L forms follow the SMILES beside them. *: point of attachment. 2Nal = N[C@@H](Cc1ccc2ccccc2c1)C(=O)O; NH(4-Me-benzyl) = Cc1ccc(CN*)cc1; Cit = NC(=O)NCCC[C@H](N)C(=O)O; Pip = O=C(O)[C@@H]1CCCCN1; X3 = C=CS(=O)(=O)*; ClAc = O=C(CCl)*
readout-label: Lysate Target Engagement?

compound: N=C(N)NCCC[C@H](NC(=O)[C@H](Cc1ccc2ccccc2c1)NC(=O)[C@@H]1CCCCN1C(=O)[C@H](CCC(=O)O)NC(=O)CCl)C(N)=O [Compound 2b-6] (ClAc-E[Pip][2Nal]R-NH2)
assay-target: Pin1 (Homo sapiens, UniProt Q13526)
Lysate Target Engagement?: No
--
compound: C=CS(=O)(=O)N[C@@H](CCC(=O)O)C(=O)N1CCCC[C@H]1C(=O)N[C@@H](Cc1ccc2ccccc2c1)C(=O)N[C@@H](CCCNC(N)=O)C(N)=O [Compound 4] (X3-E[Pip][2Nal][Cit]-NH2)
assay-target: Pin1 (Homo sapiens, UniProt Q13526)
Lysate Target Engagement?: No
--
compound: NC(=O)NCCC[C@H](NC(=O)[C@H](Cc1ccc2ccccc2c1)NC(=O)[C@@H]1CCCCN1C(=O)[C@H](CCC(=O)O)NC(=O)CCl)C(N)=O [Compound 2b-13] (ClAc-E[Pip][2Nal][Cit]-NH2)
assay-target: Pin1 (Homo sapiens, UniProt Q13526)
Lysate Target Engagement?: Yes-Complete
--
compound: NC(=O)NCCC[C@H](NC(=O)[C@H](Cc1c[nH]c2ccccc12)NC(=O)[C@@H]1CCCCN1C(=O)[C@H](CCC(=O)O)NC(=O)CCl)C(N)=O [Compound 2b-18] (ClAc-E[Pip]W[Cit]-NH2)
assay-target: Pin1 (Homo sapiens, UniProt Q13526)
Lysate Target Engagement?: Yes-Complete

Please find the next compound below.
Incoming: Suppose we examine the compound COC(=O)CC[C@H](NC(=O)CCl)C(=O)N1CCCC[C@H]1C(=O)N[C@@H](Cc1c[nH]c2ccccc12)C(=O)N[C@@H](Cc1c[nH]c2ccccc12)C(=O)NCc1ccc(C)cc1 [Compound 11-2] (ClAc-E(OMe)[Pip]WW-{NH(4-Me-benzyl)}) ; what Lysate Target Engagement? value has been reported?
Outgoing: No

---

target: Pin1 (GST-Pin1) (Homo sapiens); experiment: Fluorescence polarization (FP) assay, binding to Pin1; conditions: Ki, μM (FP Assay), competition with fluorescein-labeled peptide probe; 12 hours pre-incubation at 4° C.; Kenakin Ki equation
Non-standard residues stand in square brackets, D forms with d. Residues, ends and D or L forms follow the SMILES beside them. *: point of attachment. Biotinyl(3aR,4R,6aS) = O=C1N[C@@H]2[C@@H](CS[C@@H]2CCCCC(=O)*)N1; Phe(F5) = N[C@@H](Cc1c(F)c(F)c(F)c(F)c1F)C(=O)O; Phe(4-F) = N[C@@H](Cc1ccc(F)cc1)C(=O)O; 2Nal = N[C@@H](Cc1ccc2ccccc2c1)C(=O)O; X2 = C[C@H]1NC(=O)N[C@H]1CCCCCC(=O)*; Bta = N[C@@H](Cc1csc2ccccc12)C(=O)O; NH(4-Me-benzyl) = Cc1ccc(CN*)cc1; NMeF = CN[C@@H](Cc1ccccc1)C(=O)O; hPhe = N[C@@H](CCc1ccccc1)C(=O)O; Cit = NC(=O)NCCC[C@H](N)C(=O)O; X7 = c1ccc(-c2ccc(N*)cc2)cc1; Pip = O=C(O)[C@@H]1CCCCN1; Ac6c = NC1(C(=O)O)CCCCC1; Piperidide = C1CCN(*)CC1; βNA = c1ccc2cc(N*)ccc2c1; Fluoroacetyl = O=C(CF)*; NHcBu = C1CC(N*)C1; NHtBu = CC(C)(C)N*; X4 = CN(c1ccccc1)*; ClAc = O=C(CCl)*
Flag rule - Ki less than 0.1 µM flags rule met; the remaining entries get rule not met.

Incoming: # check: Ki < 0.1 µM for COC(=O)CC[C@H](NC(=O)CCl)C(=O)N1CCCC[C@H]1C(=O)N[C@@H](Cc1c[nH]c2ccccc12)C(=O)N[C@@H](Cc1ccc(F)cc1)C(=O)NC1CCC1 [Compound 11-19] (ClAc-E(OMe)[Pip]W[Phe(4-F)]-NHcBu)
Outgoing: rule not met

Incoming: Given Cc1ccc(CNC(=O)[C@H](CCCNC(N)=O)NC(=O)[C@H](Cc2c[nH]c3ccccc23)NC(=O)[C@@H]2CCCCN2C(=O)[C@H](Cc2ccccc2)NC(=O)CF)cc1 [Compound 15] (Fluoroacetyl-F[Pip]W[Cit]-{NH(4-Me-benzyl)}) , is recorded Ki strictly lower than 0.1 µM?
Outgoing: rule not met

Incoming: Bench note: check whether COC(=O)CC[C@H](NC(=O)CCl)C(=O)N1CCCC[C@H]1C(=O)N[C@@H](Cc1c[nH]c2ccccc12)C(=O)N[C@@H](Cc1ccc(F)cc1)C(=O)N(C)c1ccccc1 [Compound 11-20] (ClAc-E(OMe)[Pip]W[Phe(4-F)]-X4) shows Ki below 0.1 µM
Outgoing: rule not met

Incoming: Is the reported Ki for COC(=O)CC[C@H](NC(=O)CCl)C(=O)N1CCCC[C@H]1C(=O)N[C@@H](Cc1c[nH]c2ccccc12)C(=O)N[C@@H](CCCNC(N)=O)C(=O)Nc1ccc2ccccc2c1 [Compound 11-8] (ClAc-E(OMe)[Pip]W[Cit]-βNA) strictly below 0.1 µM?
Outgoing: rule not met

Incoming: Bench note: check whether N=C(N)NCCC[C@H](NC(=O)[C@H](Cc1ccc2ccccc2c1)NC(=O)[C@@H]1CCCCN1C(=O)[C@H](CCC(=O)O)NC(=O)CF)C(N)=O [Compound 6b-1] (Fluoroacetyl-E[Pip][2Nal]R-NH2) shows Ki below 0.1 µM
Outgoing: rule not met

Incoming: Strictly below 0.1 µM: is that where Ki of C[C@H]1NC(=O)N[C@H]1CCCCCC(=O)NCCCC[C@H](NC(=O)[C@H](CCCNC(N)=O)NC(=O)[C@H](Cc1c[nH]c2ccccc12)NC(=O)[C@@H]1CCCCN1C(=O)[C@H](CCC(=O)O)NC(=O)CCl)C(N)=O [Compound 2c-2] (ClAc-E[Pip]W[Cit]K(X2)-NH2) sits?
Outgoing: rule met

Incoming: I wonder whether COC(=O)CC[C@H](NC(=O)CCl)C(=O)N1CCCC[C@H]1C(=O)N[C@@H](Cc1csc2ccccc12)C(=O)N[C@@H](Cc1ccc(F)cc1)C(=O)NCc1ccc(C)cc1 [Compound 11-22] (ClAc-E(OMe)[Pip][Bta][Phe(4-F)]-{NH(4-Me-benzyl)}) has Ki below 0.1 µM. Can you tell?
Outgoing: rule not met

Incoming: Strictly below 0.1 µM in Ki? COC(=O)CC[C@H](NC(=O)CCl)C(=O)N1CCCC[C@H]1C(=O)N[C@@H](Cc1c[nH]c2ccccc12)C(=O)N[C@@H](Cc1c(F)c(F)c(F)c(F)c1F)C(=O)NCc1ccc(C)cc1 [Compound 11-25] (ClAc-E(OMe)[Pip]W[Phe(F5)]-{NH(4-Me-benzyl)})
Outgoing: rule not met

Incoming: Input NC(=O)NCCC[C@H](NC(=O)[C@H](Cc1ccc2ccccc2c1)NC(=O)C1(NC(=O)[C@H](CCC(=O)O)NC(=O)CCl)CCCCC1)C(N)=O [Compound 2-10] (ClAc-E[Ac6c][2Nal][Cit]-NH2) ; condition: Ki strictly below 0.1 µM. Does it hold?
Outgoing: rule not met

Incoming: Input CN(C(=O)CCl)[C@@H](Cc1ccccc1)C(=O)N1CCCC[C@H]1C(=O)N[C@@H](Cc1c[nH]c2ccccc12)C(=O)N[C@@H](CCCNC(N)=O)C(=O)N[C@@H](CCCCNC(=O)CCCC[C@H]1SC[C@H]2NC(=O)N[C@H]21)C(N)=O [Compound 2-32] (ClAc-[NMeF][Pip]W[Cit]K(Biotinyl(3aR,4R,6aS))-NH2) ; condition: Ki strictly below 0.1 µM. Does it hold?
Outgoing: rule met

Incoming: # check: Ki < 0.1 µM for COC(=O)CC[C@H](NC(=O)CCl)C(=O)N1CCCC[C@H]1C(=O)N[C@@H](Cc1c[nH]c2ccccc12)C(=O)N[C@@H](Cc1ccc(F)cc1)C(=O)NC(C)(C)C [Compound 11-18] (ClAc-E(OMe)[Pip]W[Phe(4-F)]-NHtBu)
Outgoing: rule not met

Incoming: Record NC(=O)NCCC[C@H](NC(=O)[C@H](Cc1c[nH]c2ccccc12)NC(=O)[C@@H]1CCCCN1C(=O)[C@H](CCc1ccccc1)NC(=O)CCl)C(=O)N1CCCCC1 [Compound 11-40] (ClAc-[hPhe][Pip]W[Cit]-Piperidide) : is its Ki strictly below 0.1 µM?
Outgoing: rule met

Incoming: Threshold test, Ki < 0.1 µM: NC(=O)NCCC[C@H](NC(=O)[C@H](Cc1c[nH]c2ccccc12)NC(=O)[C@@H]1CCCCN1C(=O)[C@H](CCC(=O)O)NC(=O)CF)C(N)=O [Compound 6b] (Fluoroacetyl-E[Pip]W[Cit]-NH2)
Outgoing: rule not met

Incoming: In the record for COC(=O)CC[C@H](NC(=O)CCl)C(=O)N1CCCC[C@H]1C(=O)N[C@@H](Cc1c[nH]c2ccccc12)C(=O)N[C@@H](CCCNC(N)=O)C(=O)Nc1ccc(-c2ccccc2)cc1 [Compound 11-17] (ClAc-E(OMe)[Pip]W[Cit]-X7) , is Ki less than 0.1 µM?
Outgoing: rule not met

Incoming: hey, is Ki for COC(=O)CC[C@@H](NC(=O)CCl)C(=O)N1CCCC[C@H]1C(=O)N[C@@H](Cc1c[nH]c2ccccc12)C(=O)N[C@@H](Cc1ccc(F)cc1)C(=O)NCc1ccc(C)cc1 [Compound 11-16] (ClAc-[dE](OMe)[Pip]W[Phe(4-F)]-{NH(4-Me-benzyl)}) lower than 0.1 µM or not?
Outgoing: rule not met
